The measurements presented in this section are drawn from the supplement of paper PMC10266784.

B1: library; numbered along this chain (parent)
chain: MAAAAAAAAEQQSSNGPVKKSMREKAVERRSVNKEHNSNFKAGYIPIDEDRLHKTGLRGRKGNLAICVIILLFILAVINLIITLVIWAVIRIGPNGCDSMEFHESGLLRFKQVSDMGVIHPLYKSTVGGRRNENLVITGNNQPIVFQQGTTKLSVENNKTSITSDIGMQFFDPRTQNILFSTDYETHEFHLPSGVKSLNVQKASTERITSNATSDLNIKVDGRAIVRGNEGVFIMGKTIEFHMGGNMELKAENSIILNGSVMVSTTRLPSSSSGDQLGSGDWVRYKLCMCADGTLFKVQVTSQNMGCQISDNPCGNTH

variants of: B1; test: SGCB cell-surface expression functional score (HA stain, bin4 vs bin1, normalised to synonymous) (log10 ratio); higher = more cell-surface SGCB (functional)
// bucketize SGCB cell-surface expression functional score (log10): b0 (below 0.07), b1 (0.07 to below 0.4), b2 (0.4 or more)

// below: answered variants
MUTATION_ID: L268V
ANSWER_LABEL: b1
//
MUTATION_ID: K124M
ANSWER_LABEL: b0
//
MUTATION_ID: G245H
ANSWER_LABEL: b2
//
MUTATION_ID: V32I
ANSWER_LABEL: b1

Prompt: Bin? G228D
Response: b0

Prompt: Lab log: E230G — assign SGCB cell-surface expression functional score (log10) category
Response: b2

Prompt: Bin this entry: S14L
Response: b1

Prompt: Field: class (SGCB cell-surface expression functional score (log10)) — entry: N134D
Response: b1

Prompt: Sort into band: M305S
Response: b0

Prompt: Which class is correct for the following variant? I166E
Response: b2
